Experiment: JC-1 mitochondrial signal, unstimulated HepG2 cells – cell-based, JC-1 fluorescence, 24 h, 100 nL compound, profiling panel (AID 1167); note: test concentration not given here
Conditions: HepG2 mitochondrial potential, higher = more signal
Classification field: enter 1 (yes) for z-score values not below 0.4, 0 (no) for values below it.

**Q:** Check if z-score >= 0.4 (inclusive). Item: `COc1ccc(CCNC(=O)[C@@]2(c3ccc([N+](=O)[O-])cc3)CC(=O)N(CC34CC5CC(CC(C5)C3)C4)[C@@H]2c2ccc(CO)cc2I)cc1`
**A:** 1 (yes)

**Q:** In plain terms: is recorded z-score at least 0.4 for `COC(=O)[C@@]1(Cc2ccc(OC)cc2)[C@H]2c3cc(C(=O)N4CCCC4)n(CCCNc4ncc(C(F)(F)F)cc4Cl)c3C[C@H]2CN1C(=O)c1ccccc1` ?
**A:** 0 (no)

**Q:** Confirm if z-score reported for the compound `NCCCCCNC(=O)[C@H]1C[C@H]2C(=O)N[C@@H](Cc3ccccc3)C(=O)N2[C@H]1c1cccc(OCCO)c1` is 0.4 or above.
**A:** 1 (yes)

**Q:** Please check the record C=CCN(Cc1ccccc1)C(=O)C(c1cccs1)N(C(=O)/C=C\C(=O)O)c1ccc(CCOCCO)cc1 (stereo unspecified) and state if its z-score is at or above 0.4.
**A:** 1 (yes)

**Q:** Could you verify whether the entry `COc1ccc([C@H]2C[C@H]3C(Br)=C[C@@]2(CO)C(=O)[C@]32CO2)cc1` shows z-score of no less than 0.4?
**A:** 0 (no)

Continuing:
**Q:** Record `C=C(CCCC)/C(=C/C[C@H](OC(=O)c1ccncc1)c1ccc(OCCO)cc1)c1cc(C(=O)OC)ccc1OC` ; criterion: z-score no lower than 0.4. Met?
**A:** 1 (yes)

**Q:** Test whether the compound `C=CCN1Cc2ccccc2[C@@H]2OC(c3ccc(OCCCO)cc3)=N[C@]2(CCS(=O)(=O)c2ccccc2)C1=O` records z-score of 0.4 or higher.
**A:** 0 (no)

**Q:** Please check the record `CCCNC(=O)[C@@H]1c2ccccc2C(=O)N(Cc2ccccc2OC)[C@H]1c1ccc(CO)cc1` and state if its z-score is at or above 0.4.
**A:** 1 (yes)

**Q:** Say whether `CCCNC(=O)[C@@]1(Sc2ccc(C)cc2)CC(=O)N(Cc2ccccc2C(F)(F)F)[C@@H]1c1ccc(CO)cc1I` shows z-score of 0.4 or more.
**A:** 0 (no)

**Q:** Could you please find out whether `CC(C)Cc1ccc(CN2CC[C@@H](N)C2)cc1` has z-score that meets 0.4 or exceeds it?
**A:** 1 (yes)
